tested on: U2OS; assay: Multiplex assay against U2OS; assay type: toxicity, cell-based; conditions: human, 48 h, 10 µM, compound concentration 10 uM, replicate 2
Just a reminder that ties go to no: only Total Cell Count strictly below 80 counts as yes.

| Compound | Classification |
| --- | --- |
| OC1(c2ccc(Cl)cc2)CCN(Cc2c[nH]c3ccccc23)CC1 | no |
| NC(=O)Nc1cc(-c2cccc(F)c2)sc1C(=O)N[C@H]1CCCNC1 [AZD-7762] | yes |

Proceed to the following item.
Prompt line: Does the reported Total Cell Count of CN(C)C(=O)/C(C#N)=C/c1ccc(-c2nc3cnc4[nH]ccc4c3n2C2CCCCC2)o1 stay below 80?
Response line: no
